System: SEM cells
Experiment: cell viability relative to DMSO control; higher = less cytotoxic
Conditions: HPLM + 10% dialyzed FBS; 48 h; 0.569 µM
Values of cell viability strictly less than 60% map to Met, and values of at least 60% map to Not met.

smiles_input=NC1=C(Cl)C(=CC=N1)OC2=C(F)C=C(NC(=O)\C3=C\N\C=C(C3=O)\C4=CC=C(F)C=C4)C=C2 category="Not met"
smiles_input=N[S+]([O-])(=O)C1=CC=C(NC/2=C/C(=O)C3=CC=CC=C3C2=O)C=C1 category="Not met"
smiles_input=CC[C@H](NC1=C2N=C[NH]C2=NC=N1)C/3=N/C4=C(C(=CC=C4)F)C(=O)N3C5=CC=CC=C5 category="Not met"
smiles_input=CCn1cc(-c2ccnc3[nH]c(-c4cccc(CN(C)C)c4)cc23)c(-c2ccc(NC(=O)N(C)C)cc2)n1 category=Met
smiles_input=CC(C)N[C@@H]1CCn2c(=O)[nH]c3cccc(c32)[C@H]1O category="Not met"

----------
Tested on: P12-Ichikawa
Experiment: cell viability relative to DMSO control; higher = less cytotoxic
Conditions: HPLM + 10% dialyzed FBS; 48 h; 0.0632 µM
Listed here are compounds together with their documented cell viability.
PARAMETER MEASURED: cell viability (%)

compound=COc1ccc([C@@H]2CC(=O)c3c(O)cc(O[C@@H]4O[C@H](CO[C@@H]5O[C@@H](C)[C@H](O)[C@@H](O)[C@H]5O)[C@@H](O)[C@H](O)[C@H]4O)cc3O2)cc1O tested_system=P12-Ichikawa measurement_units=% result=120
compound=O=C(Nc1cc(Cl)cc2c1[nH]c1cnccc12)c1cccnc1 tested_system=P12-Ichikawa measurement_units=% result=121
compound=CC[C@H](/C=C/[C@@H](C)[C@H]1CC[C@H]2[C@@H]3CC=C4C[C@@H](O)CC[C@]4(C)[C@H]3CC[C@]12C)C(C)C tested_system=P12-Ichikawa measurement_units=% result=104
compound="CC(C)C1NC(=O)C(NC(=O)C2=C3\\N=C\\4/C(=C(C)\\C(=O)\\C(=C4C(=O)NC5C(C)OC(=O)C(C(C)C)N(C)C(=O)CN(C)C(=O)C6CCCN6C(=O)C(NC5=O)C(C)C)N)OC3=C(C)C=C2)C(C)OC(=O)C(C(C)C)N(C)C(=O)CN(C)C(=O)C7CCCN7C1=O (stereo not given)" tested_system=P12-Ichikawa measurement_units=% result=8.48
compound=CC(C)(C#N)c1cc(Cn2cncn2)cc(C(C)(C)C#N)c1 tested_system=P12-Ichikawa measurement_units=% result=117
compound=C[C@]12CC[C@@H]3c4ccc(O)cc4CC[C@H]3[C@@H]1[C@@H](O)[C@@H](O)[C@@H]2O tested_system=P12-Ichikawa measurement_units=% result=120
compound=OC[C@H]1O[C@H]([C@H](O)[C@@H]1O)N2\C=C/C(=O)NC2=O tested_system=P12-Ichikawa measurement_units=% result=101
compound=CN[C@@H]1[C@@H](O)[C@@H](O[C@@H]2[C@@H](O)[C@H](O[C@H]3O[C@H](CN)[C@@H](O)[C@H](O)[C@H]3O)[C@@H](N)C[C@H]2NC(=O)[C@@H](O)CN)OC[C@]1(C)O tested_system=P12-Ichikawa measurement_units=% result=128
compound=c1ccc2[nH]c(-c3cscn3)nc2c1 tested_system=P12-Ichikawa measurement_units=% result=122
compound=CC(C)OC(=O)C(C(=O)OC(C)C)=C1S\C=C/S1 tested_system=P12-Ichikawa measurement_units=% result=113
